The measurements presented in this section are drawn from patent US20260035456A1.

Target: T1, biotin-labeled human ADM (human, not fully specified; biotin label (named human ADM-C-biotin in Example 1.4; position of the biotin not stated for the other lots))
T1 construct: Synthetic peptide; also called human ADM-C-biotin; hADM-Biotin
T1 peptide: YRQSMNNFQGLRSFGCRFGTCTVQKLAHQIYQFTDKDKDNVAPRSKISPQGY
Experiment: BLI (Octet RED96e), as in Example 3
Reported kon is given for each of the following binders.

{"Binder": "Ab2004.Am39 (IgG1 antibody) (antibody, V domains shown, Expressed in CHO cells, human IgG1/kappa) VH: QVQLVQSGAEVKKPGASVKVSCKASGYTFTHYGIAWVRQAPGQGLEWMGWISAYQGNTNYAQKLQGRVTMTRDTSTSTAYMELRSLRSDDTAVYYCAREGRWGGSFNIWGQGTMVTVSS VL: DIQMTQSPSSLSASVGDRVTITCRASQGISSYLAWYQQKPGKAPKLLIYDASNLETGVPSRFSGSGSGTDFTFTISSLQPEDIATYYCQQYDDLDLTFGGGTKVEIKR", "kon": "468000 M⁻¹ s⁻¹"}
{"Binder": "Ab2004.Am34 (IgG1 antibody) (antibody, V domains shown, Expressed in CHO cells, human IgG1/kappa) VH: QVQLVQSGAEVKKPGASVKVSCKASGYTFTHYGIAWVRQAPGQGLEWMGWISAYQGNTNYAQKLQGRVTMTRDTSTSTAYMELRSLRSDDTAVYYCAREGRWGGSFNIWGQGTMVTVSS VL: DIQMTQSPSSLSASVGDRVTITCRASQGISSYLAWYQQKPGKAPKLLIYDVSILDAGVPSRFSGSGSGTDFTFTISSLQPEDIATYYCQQYDNLPLTFGGGTKVEIKR", "kon": "444000 M⁻¹ s⁻¹"}
{"Binder": "Ab2004.Am36 (IgG1 antibody) (antibody, V domains shown, Expressed in CHO cells, human IgG1/kappa) VH: QVQLVQSGAEVKKPGASVKVSCKASGYTFTQYGIAWVRQAPGQGLEWMGWISAYQGNTNYAQKLQGRVTMTRDTSTSTAYMELRSLRSDDTAVYYCAREGRWGGSFNIWGQGTMVTVSS VL: DIQMTQSPSSLSASVGDRVTITCRASQGISSYLAWYQQKPGKAPKLLIYDASNVDTGVPSRFSGSGSGTDFTFTISSLQPEDIATYYCQQYDNLPLTFGGGTKVEIKR", "kon": "372000 M⁻¹ s⁻¹"}
